measurement_description: Cytotoxicity, LDH assay, PC3 cells
Type: cell-based, human
details: human, PC3 prostate adenocarcinoma cells, 30 μg/mL, 24 h, mean ± SD of three; read-out: Cell viability PC3
measured_metric: viability at 24 h, 30 μg/mL (%)
Answers are plain numbers, in %.

CCC(C)C(=O)OC1C=C2C3C(C)C(C)(O)CC(OC(C)=O)C3(C)CCC2(C)C2(C)CC(OC(C)=O)C3C(C)(C)C(O)C(OC(C)=O)CC3(C)C12 (centres unmarked); 74.8

Next, consider the following compound.
Find the recorded viability at 24 h, 30 μg/mL belonging to CC(=O)OC1CC2(C)C(C(OC(C)=O)CC3(C)C2C(O)C=C2C4C(C)C(C)(O)CC(OC(C)=O)C4(C)CCC23C)C(C)(C)C1O (centres unmarked) and report it. 79
